# Organism: Rattus norvegicus
# Experiment notes: Allosteric modulation of rat GABAA alpha1beta2gamma2S receptor expressed in Xenopus laevis oocytes assessed as potentiation of GABA-induced chloride ion current at holding potential -70 mV at 100 uM by two-microelectrode voltage clamp assay relative to GABA-treated control
# Type: cell-based
Measurement name: Activity
Answer format: value, then unit.

The compound identified as Oc1ccc(CCc2cc(O)cc(O)c2)cc1 registered its Activity at 162%

The measured Activity associated with C(=C(c1ccccc1)c1ccccc1)c1ccccc1 reads -7.3%

// Activity lookup, compound = c1ccc(CC(c2ccccc2)c2ccccc2)cc1 , result: 51.6%

Entry under test: C(=C/c1ccccc1)/c1ccccc1 . Its Activity was 12.6%

---

# Species: Rattus norvegicus
# Experiment notes: Allosteric modulation of rat GABAA alpha1beta2gamma2S receptor expressed in Xenopus laevis oocytes assessed as potentiation of GABA-induced chloride ion current at holding potential -70 mV at 100 uM by two-microelectrode voltage clamp assay relative to GABA-treated control
# Assay type: cell-based
Measurement name: Activity
Number first, unit second.

Field Activity (entry CC(=O)Oc1ccc(CCc2cc(OC(C)=O)cc(OC(C)=O)c2)cc1 ) reads 228%

Looking up COc1ccc(CCc2ccc(OC)cc2)cc1 , I see its Activity listed as -20.9%

Given item COc1cc(CCc2ccc(OC)c(OC)c2)cc(OC)c1 , the value recorded as its Activity is 544%

Input COc1ccc(CCc2ccccc2F)cc1 . Output Activity: -16.8%

Recorded Activity (compound c1ccc(CCc2ccccc2)cc1 ): 8.3%

Value of measured Activity for the entry COc1cc(/C=C/c2ccc(O)cc2)cc(OC)c1 : 212%

Sample COc1cc(O)cc(/C=C\c2cccc(O)c2)c1 ; Activity observed: 192%

According to the records, this compound Oc1cc(O)cc(CCc2ccc(O)cc2O)c1 displays Activity of 44.1%

The value of Activity measured for the compound Oc1cc(O)cc(/C=C/c2ccc(O)cc2O)c1 turned out to be -19.7%
